Taken from patent US20250304620A1.

# Test system: Pseudomonas aeruginosa ATCC 27853
# Format: cell-based
Non-standard residues stand in square brackets, D forms with d. Residues, ends and D or L forms follow the SMILES beside them. dPhe(4-Br) = N[C@H](Cc1ccc(Br)cc1)C(=O)O; dPhe(4-Cl) = N[C@H](Cc1ccc(Cl)cc1)C(=O)O; d2Nal = N[C@H](Cc1ccc2ccccc2c1)C(=O)O
readout.kind: MIC Pseudomonas aeruginosa ATCC 27853 (µg/mL)

compound	target.entity	readout.kind	value
CC(=O)N[C@H](CCCNC(=N)N)C(=O)N[C@H](CCCCN)C(=O)N[C@H](CC(C)C)C(=O)N[C@H](CC(C)C)C(=O)N[C@H](Cc1ccc2ccccc2c1)C(=O)N[C@H](CCCNC(=N)N)C(=O)N[C@H](CC(C)C)C(=O)N[C@H](CCCCN)C(=O)N[C@H](Cc1ccc2ccccc2c1)C(=O)N[C@H](CCCNC(=N)N)C(=O)N[C@H](CCCNC(=N)N)C(N)=O [LV-22] (Ac-[dR][dK][dL][dL][d2Nal][dR][dL][dK][d2Nal][dR][dR]-NH2)	Pseudomonas aeruginosa ATCC 27853	MIC Pseudomonas aeruginosa ATCC 27853	2
CC(=O)N[C@H](CCCCN)C(=O)N[C@H](CCCCN)C(=O)N[C@H](CC(C)C)C(=O)N[C@H](CC(C)C)C(=O)N[C@H](Cc1ccc2ccccc2c1)C(=O)N[C@H](CCCNC(=N)N)C(=O)N[C@H](CC(C)C)C(=O)N[C@H](CCCCN)C(=O)N[C@H](Cc1ccc2ccccc2c1)C(=O)N[C@H](CCCNC(=N)N)C(=O)N[C@H](CCCCN)C(N)=O [LV-19] (Ac-[dK][dK][dL][dL][d2Nal][dR][dL][dK][d2Nal][dR][dK]-NH2)	Pseudomonas aeruginosa ATCC 27853	MIC Pseudomonas aeruginosa ATCC 27853	1
CC(=O)N[C@H](CCCNC(=N)N)C(=O)N[C@H](CCCCN)C(=O)N[C@H](CC(C)C)C(=O)N[C@H](CC(C)C)C(=O)N[C@H](Cc1ccc(Cl)cc1)C(=O)N[C@H](CCCCN)C(=O)N[C@H](CC(C)C)C(=O)N[C@H](CCCCN)C(=O)N[C@H](Cc1ccc(Cl)cc1)C(=O)N[C@H](CCCCN)C(=O)N[C@H](CCCNC(=N)N)C(N)=O [LV-7] (Ac-[dR][dK][dL][dL][dPhe(4-Cl)][dK][dL][dK][dPhe(4-Cl)][dK][dR]-NH2)	Pseudomonas aeruginosa ATCC 27853	MIC Pseudomonas aeruginosa ATCC 27853	2
CC(=O)N[C@H](CCCNC(=N)N)C(=O)N[C@H](CCCCN)C(=O)N[C@H](CC(C)C)C(=O)N[C@H](CC(C)C)C(=O)N[C@H](Cc1ccccc1)C(=O)N[C@H](CCCNC(=N)N)C(=O)N[C@H](CC(C)C)C(=O)N[C@H](CCCCN)C(=O)N[C@H](Cc1ccc2ccccc2c1)C(=O)N[C@H](CCCNC(=N)N)C(=O)N[C@H](CCCCN)C(N)=O [LV-3] (Ac-[dR][dK][dL][dL][dF][dR][dL][dK][d2Nal][dR][dK]-NH2)	Pseudomonas aeruginosa ATCC 27853	MIC Pseudomonas aeruginosa ATCC 27853	4
CC(=O)N[C@H](CCCCN)C(=O)N[C@H](CCCCN)C(=O)N[C@H](CC(C)C)C(=O)N[C@H](CC(C)C)C(=O)N[C@H](Cc1ccc(Br)cc1)C(=O)N[C@H](CCCNC(=N)N)C(=O)N[C@H](CC(C)C)C(=O)N[C@H](CCCCN)C(=O)N[C@H](Cc1ccc(Br)cc1)C(=O)N[C@H](CCCNC(=N)N)C(=O)N[C@H](CCCCN)C(N)=O [LV-10] (Ac-[dK][dK][dL][dL][dPhe(4-Br)][dR][dL][dK][dPhe(4-Br)][dR][dK]-NH2)	Pseudomonas aeruginosa ATCC 27853	MIC Pseudomonas aeruginosa ATCC 27853	2
